- TEST DETAILS: Mouse pk profiles
- Type: in vivo
- ASSAY CONDITIONS: plasma, PO (30 mg/kg)
OBSERVATION TYPE: Cmax

compound="O=C1NC[C@H](c2ccc(-c3csc(C(F)(F)F)c3)c(F)c2F)N1c1ccc2[nH]cnc2c1 [Compound 34]" reading="1980 ng/mL"
compound="O=C1NC[C@H](c2ccc(-c3csc(C(F)(F)F)c3)cc2)N1c1ccc2[nH]cnc2c1 [Compound 32]" reading="3720 ng/mL"
compound="CCCOc1ccc([C@H]2CNC(=O)N2c2ccc3[nH]cnc3c2)cc1 [PQ912, reference compound]" reading="2020 ng/mL"

Input: Let me know recorded Cmax for O=C1NC[C@H](c2ccc(-c3cnc(C(F)(F)F)s3)cc2)N1c1ccc2[nH]cnc2c1 [Compound 30] , thanks.
Output: 1780 ng/mL

Measured values drawn from patent US20230097801A1 for this set.
